The reported measurements were obtained from the Human Domainome abundance scans (Beltran et al. 2025).

Can you tell me abundance fitness for the items I'm about to list?
B1: KAT8 regulatory NSL complex subunit 2, residues 28 to 91; numbered along this chain, Q9H9L4 (parent)
chain: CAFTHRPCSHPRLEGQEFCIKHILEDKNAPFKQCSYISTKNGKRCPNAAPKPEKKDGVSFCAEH

variants of: B1; assay: abundance fitness (aPCA) (normalised: wild type 0, dead -1); higher = more abundant; growth selection in yeast, the domain comes from the species named; conditions: Homo sapiens
Numbers only.

Completed entries (count: 3):
V58A : -0.018
F31T : -0.21
T39C : -0.205

Lab note: each variant below needs its abundance fitness filled in.
1. P30L
2. G42E
3. A48M
4. N47F

-0.188
-0.005
-0.159
0.006

Lab note: each variant below needs its abundance fitness filled in.
1. K51R
2. H64M

1. -0.087
2. -0.333

Lab note: each variant below needs its abundance fitness filled in.
1. H64R
2. I23D
3. A2W

1: -0.427; 2: -0.35; 3: -0.541

Lab note: each variant below needs its abundance fitness filled in.
1. Q33L
2. P50Q
3. A48H

[0.004, -0.265, -0.336]

Lab note: each variant below needs its abundance fitness filled in.
1. E14F
2. K51L
3. C1K
4. N47V

-0.252
-0.101
-0.155
-0.063

Lab note: each variant below needs its abundance fitness filled in.
1. C19H
2. A2P
3. C1A

[-1.63, -0.421, -0.343]
